Values from patent US20250082681A1

system: T1, recombinant human CLL1 extracellular domain, His-tagged (CLL1-His protein) (human, UniProt Q5QGZ9 65-265)
T1 construct: ECD made by transient expression in HEK293 (293-F) cells and purified by IMAC; also called recombinant human CLL1 protein; ECD of CLL1; not shown: His tag (protein called CLL1-His, purified by IMAC)
T1 sequence: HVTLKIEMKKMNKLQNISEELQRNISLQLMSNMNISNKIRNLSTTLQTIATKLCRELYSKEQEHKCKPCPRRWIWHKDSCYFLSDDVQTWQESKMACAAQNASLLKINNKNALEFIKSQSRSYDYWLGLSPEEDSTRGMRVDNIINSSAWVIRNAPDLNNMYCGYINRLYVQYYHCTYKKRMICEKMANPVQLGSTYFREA
test: SPR (BIACORE T200), IgG1 on recombinant human CLL1; column KD, unit inferred
quantity: pKd
// pKd is dimensionless: -log10 of concentration (M)

# annotated cases, reported pKd shown
# binder, pKd
data = [
    ("AS141567 (antibody, V domains shown, Called 'IgG1', from a camel phage library, expressed in IPTG-induced supernatant with a C-terminal His-tag; also called anti-CLL1 IgG1) VH: QVQLVQSGGGLVQPGGSLRLSCAASGFTFSSYAMSWVRQAPGKGLEWVSAINSGDSSTYYVDSVKGRFTISRDNAKNTLYLQLNSLKTEDTAMYYCAKDRIPGPYSDGGGFLGIVFGYWGQGTQVTISS VL: SSELTQPSAVSVSLGQTARITCQGGNFGKYYAHWYQQKPGQAPVLVIYEDSERPSGIPERFSGSSSGDTATLTISGAQAEDEGDYYCHSAESSAAVFGGGTHLTVL", 8.64),
    ("AS141522 (antibody, V domains shown, Called 'IgG1', from a camel phage library, expressed in IPTG-induced supernatant with a C-terminal His-tag; also called anti-CLL1 IgG1) VH: QVQLVQSGGGLVQPGGSLRLSCAASGFTFGDYIMIWVRQAPGKGLEWVSAINSGGDSTYYADSVKGRFTISRDNAKNTLYLQLNSLKTQDTAIYYCAKDREAYYGSFYGGSGFDYWGQGTQVTISS VL: SSELTQPSAVSVSLGETARITCQGGNVGSSYASWYQQKPGQAPVLVIYEDSERPSGIPERFSGSSSGGTATLTISRAQAEDEADYYCQSADRSGYNAVFGGGTHLTVL", 9.43),
]

## Task Endpoint output: pKd of AS141819 (antibody, V domains shown, Called 'IgG1', from a camel phage library, expressed in IPTG-induced supernatant with a C-terminal His-tag; also called anti-CLL1 IgG1) VH: EVQLVQSGGGLVQPGGSLRLSCATSGFTFSNNWMHWVRQAPGKGLEWVSSINTGDGSTSSADSVKGRFTISRDNTKNILYLQMNSLKSEDTALYYCAKELDYELGKGPHEYNYWGQGTQVTVSS VL: SYELTQPSAVSVSLGETARITCQGGNIGSNYANWYQQKPDQAPVLVIYGDDSRPSGIPERFSGSSSGGTATLTISGAQAEDETDYYCQSADSSGYKAVFGGGTHLTVL . Value?
## Result 7.96
